target: CDK9 (Homo sapiens); construct: full-length human kinases from Carna Biosciences; purchased Carna Biosciences 04-110; experiment: Kinase TR-FRET assay, CDK9; assay type: biochemical; settings: full-length human kinase, 10 μM ATP
Sequence (P50750 whole entry): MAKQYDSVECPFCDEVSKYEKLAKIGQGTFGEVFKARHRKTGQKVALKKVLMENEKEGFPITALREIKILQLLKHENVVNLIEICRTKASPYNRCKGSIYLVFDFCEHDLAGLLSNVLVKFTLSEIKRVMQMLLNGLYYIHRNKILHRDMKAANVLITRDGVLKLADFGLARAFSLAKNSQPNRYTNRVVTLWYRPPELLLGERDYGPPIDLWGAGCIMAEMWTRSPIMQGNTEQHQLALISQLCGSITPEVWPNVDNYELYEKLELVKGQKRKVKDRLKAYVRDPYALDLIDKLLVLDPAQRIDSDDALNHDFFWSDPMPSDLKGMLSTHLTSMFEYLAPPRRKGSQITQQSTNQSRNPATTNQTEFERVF
Sequence (O60563 whole entry partner): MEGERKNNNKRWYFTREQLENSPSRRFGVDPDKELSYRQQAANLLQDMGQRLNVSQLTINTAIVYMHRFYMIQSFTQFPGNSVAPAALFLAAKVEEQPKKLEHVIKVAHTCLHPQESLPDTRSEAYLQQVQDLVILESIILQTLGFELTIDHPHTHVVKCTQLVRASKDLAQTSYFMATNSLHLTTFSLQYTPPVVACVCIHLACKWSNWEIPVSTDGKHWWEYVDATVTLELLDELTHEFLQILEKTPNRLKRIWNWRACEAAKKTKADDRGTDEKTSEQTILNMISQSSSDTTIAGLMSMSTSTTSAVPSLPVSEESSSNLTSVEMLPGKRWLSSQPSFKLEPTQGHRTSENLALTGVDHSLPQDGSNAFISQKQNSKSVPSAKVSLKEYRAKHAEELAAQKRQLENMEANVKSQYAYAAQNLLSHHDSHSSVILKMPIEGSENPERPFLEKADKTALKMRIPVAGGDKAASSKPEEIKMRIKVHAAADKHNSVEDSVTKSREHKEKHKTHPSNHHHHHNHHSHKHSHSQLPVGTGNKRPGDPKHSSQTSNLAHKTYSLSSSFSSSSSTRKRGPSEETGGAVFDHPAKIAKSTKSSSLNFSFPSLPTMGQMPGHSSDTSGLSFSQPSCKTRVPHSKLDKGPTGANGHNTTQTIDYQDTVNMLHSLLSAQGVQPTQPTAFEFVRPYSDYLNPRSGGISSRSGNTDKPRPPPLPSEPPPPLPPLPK
measurement_name: IC50 (µM)

- Cc1nc2ccc(-c3cc(N)nc(N)c3)nc2n1Cc1cccs1: 2.92
- Cc1nc2ccc(-c3cc(N)nc(N)c3)nc2n1CC1CC1: 3.45

[P] Cc1nc2ccc(-c3cc(N)nc(N)c3)nc2n1Cc1cccnc1
[Q] Cc1nc2ccc(-c3cc(N)nc(N)c3)nc2n1C
Would you kindly point out which of P and Q has the smaller IC50 figure? # respond with the chosen item's label
Q

* * *

Target: DYRK1A (Homo sapiens)
Experiment: Cellular DYRK1 autophosphorylation assay in U2-OS cells
Format: cell-based
Parameters: full-length, wild-type human DYRK1A (NM_001396) with an HA tag; expressed in transfected cells; host or cells: human U2-OS osteosarcoma cells, transient transfection of a pcDNA3.1 plasmid
Details: U2-OS cells transfected with HA-tagged human DYRK1A, 5 hours exposure; read-out: IC50 (μM) P-Ser520-Dyrk1A -Cell assay
Description: On day 2, cells were exposed to a range of concentrations of the test compounds of the invention for 5 hours. […] The relative levels of phospho-Ser520-DYRK1A were assayed using either western blotting or the Mesoscale ELISA platform. […] Chemiluminescence detection was performed using the ECL plus western blotting detection kit (Amersham) and was recorded on ECL plus hyperfilm (Amersham). […] After a further 1 hour, Read Buffer was added and plates were read on the Sector Imager 2400 (Mesoscale). […]
measurement_name: IC50 (µM)

Sample answers from the record:
* Cc1nc2ccc(-c3cc(N)nc(N)c3)nc2n1C[C@@H](C)Oc1cccc(F)c1 (single isomer, unassigned) | 0.061
* Cc1nc2ccc(-c3cc(N)nc(N)c3)nc2n1[C@@H]1C[C@@H]1Cc1ccccc1 (single isomer, unassigned) | 0.024
* Cc1nc2ccc(-c3cc(N)nc(N)c3)nc2n1Cc1ccnc(F)c1 | 0.113

[a] Cc1nc2ccc(-c3cc(N)nc(N)c3)nc2n1C[C@H](C)Oc1ncccc1Br (single isomer, unassigned)
[b] Cc1nc2ccc(-c3cc(N)nc(N)c3)nc2n1CC1Cc2ccccc2C1
Would you kindly point out which of a and b has the smaller IC50 figure? # respond with the chosen item's label
b
(b: 0.039 µM, a: 0.175 µM)

[P] Cc1nc2ccc(-c3cc(N)nc(N)c3)nc2n1CC1Cc2ccccc21 (single isomer, unassigned) [Example 113]
[Q] Cc1nc2ccc(-c3cc(N)nc(N)c3)nc2n1CCOc1cccc(C(F)(F)F)n1
Kindly identify which of P and Q has the larger recorded IC50 value. # respond with the chosen item's label
P
(P: 0.243 µM, Q: 0.02 µM)

[I] Cc1nc2ccc(-c3cc(N)nc(N)c3)nc2n1CC(C)(C)Oc1ccccc1
[II] CCCCc1nc2ccc(-c3cc(N)nc(N)c3)nc2n1CCCC
Kindly identify which of I and II has the larger recorded IC50 value. # respond with the chosen item's label
I
(I: 0.267 µM, II: 0.128 µM)

* * *

target: His-TEV-DYRK1A Kinase domain (aa127-485) (Homo sapiens); construct: His-TEV-DYRK1A Kinase domain (aa127-485); His tag (N); TEV protease cleavage site (N); assay: Kinase ADP assay (ADP Hunter), DYRK1A kinase domain; type: biochemical; conditions: 20 μM ATP
measurement_name: IC50 (µM)

Sample answers from the record:
- Cc1nc2ccc(-c3cc(N)nc(F)c3)nc2n1C1CC(F)(F)C1: 0.016
- Cc1nc2ccc(-c3cc(N)nc(N)c3)nc2n1CC(O)CO (centres unmarked): 0.027
- Cc1cccc(OCCn2c(C)nc3ccc(-c4cc(N)nc(N)c4)nc32)n1: 0.013
- Cc1nc2ccc(-c3cc(N)nc(N)c3)nc2n1CCOc1cccc(N)n1: 0.012

[a] CCCCn1c(C)nc2ccc(-c3cc(N)nc(NC(=O)C4CCCCC4)c3)nc21
[b] Cc1nc2ccc(-c3cc(N)nc(N)c3)nc2n1CCOc1cccc(C(F)(F)F)n1
[c] CCCCn1c(CCC)nc2ccc(-c3cc(N)nc(N)c3)nc21
[d] Cc1nc2ccc(-c3cc(N)nc(N)c3)nc2n1C[C@@H](C)Oc1cccc(Br)n1 (single isomer, unassigned)
Order each entry by recorded IC50, climbing from the minimum. Put the labels in the order asked and list them.
b, c, d, a
(b: 0.007 µM, c: 0.02 µM, d: 0.081 µM, a: 0.236 µM)

[1] Cc1nc2ccc(-c3cc(N)nc(N)c3)nc2n1CCOc1cccc(C#N)n1
[2] CCCCn1c(C)nc2ccc(-c3cc(N)nc(NC(=O)Cc4ccccc4)c3)nc21
Kindly identify which of 1 and 2 has the larger recorded IC50 value. # respond with the chosen item's label
2

* * *

target: DYRK1B (Homo sapiens, UniProt Q9Y463); construct: full-length human kinases from Carna Biosciences; purchased Carna Biosciences 04-131; experiment: Kinase TR-FRET assay, DYRK1B; format: biochemical; details: full-length human kinase, 10 μM ATP
Sequence (Q9Y463 whole entry): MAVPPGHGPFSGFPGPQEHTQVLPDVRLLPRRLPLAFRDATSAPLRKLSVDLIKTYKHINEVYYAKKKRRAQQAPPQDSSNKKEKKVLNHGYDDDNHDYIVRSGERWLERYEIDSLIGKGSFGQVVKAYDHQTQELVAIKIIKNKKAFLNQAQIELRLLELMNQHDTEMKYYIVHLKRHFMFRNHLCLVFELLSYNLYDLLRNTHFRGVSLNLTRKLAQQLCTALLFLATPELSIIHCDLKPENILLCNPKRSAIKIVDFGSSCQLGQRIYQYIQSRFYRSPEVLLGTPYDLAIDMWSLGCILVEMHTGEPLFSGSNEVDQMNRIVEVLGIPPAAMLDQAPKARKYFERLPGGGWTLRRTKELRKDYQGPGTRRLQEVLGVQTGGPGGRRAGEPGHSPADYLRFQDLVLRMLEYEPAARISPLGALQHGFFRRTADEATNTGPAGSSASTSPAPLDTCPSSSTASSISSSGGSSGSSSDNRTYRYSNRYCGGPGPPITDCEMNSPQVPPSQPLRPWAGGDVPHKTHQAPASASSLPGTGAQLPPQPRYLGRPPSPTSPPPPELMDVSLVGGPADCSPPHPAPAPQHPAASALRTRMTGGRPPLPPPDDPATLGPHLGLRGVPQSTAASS
measurement_name: IC50 (µM)

Sample answers from the record:
- CCCCn1c(C)nc2ccc(-c3cc(N)nc(N)c3)nc21: 0.006
- COc1cccc(CCn2c(C)nc3ccc(-c4cc(N)nc(N)c4)nc32)c1: 0.007
- N#Cc1nc2ccc(-c3cc(N)nc(N)c3)nc2n1CCOc1ccccc1: 0.031
- Cc1ccccc1CCn1c(C)nc2ccc(-c3cc(N)nc(N)c3)nc21: 0.007
- Cc1nc2ccc(-c3cc(N)nc(N)c3)nc2n1C1Cc2ccccc2C1: 0.003

[A] CCCCc1nc2ccc(-c3cc(N)nc(N)c3)nc2n1CCCC
[B] Cc1nc2ccc(-c3cc(N)nc(N)c3)nc2n1C1CCCCC1
Would you kindly point out which of A and B has the smaller IC50 figure? # respond with the chosen item's label
B
(B: 0.003 µM, A: 0.012 µM)

[P] CCCCn1c(C)nc2ccc(-c3cc(N)nc(NC(=O)Cc4ccccc4)c3)nc21
[Q] Cc1nc2ccc(-c3cc(N)nc(N)c3)nc2n1CCc1ccc(Cl)c(Cl)c1
[R] Cc1nc2ccc(-c3ccnc(N)c3)nc2n1CCC1CCCCC1
Order field: IC50 | Direction: descending (largest first) Put the labels in the order asked and list them.
P, Q, R
(P: 0.091 µM, Q: 0.013 µM, R: 0.005 µM)

* * *

biological target: His-TEV-DYRK1A Kinase domain (aa127-485) (Homo sapiens); construct: His-TEV-DYRK1A Kinase domain (aa127-485); His tag (N); TEV protease cleavage site (N); experiment: Kinase ADP assay (ADP Hunter), DYRK1A kinase domain; assay type: biochemical; conditions: 20 μM ATP
measurement_name: IC50 (µM)

- CCCCCCn1c(C)nc2ccc(-c3cc(N)nc(N)c3)nc21: 0.005
- Cc1nc2ccc(-c3cc(N)nc(N)c3)nc2n1CCOc1ccc2[nH]ccc2c1: 0.008
- Cc1nc2ccc(-c3cc(N)nc(N)c3)nc2n1CCc1ccc(F)cc1: 0.011

[a] CCOc1ccccc1OCCn1c(C)nc2ccc(-c3cc(N)nc(N)c3)nc21
[b] Cc1nc2ccc(-c3cc(N)nc(N)c3)nc2n1C
Kindly identify which of a and b has the larger recorded IC50 value. # respond with the chosen item's label
a

* * *

biological target: DYRK1A (Homo sapiens, UniProt Q13627); assay: Pharmacodynamic assay in RS4;11 tumor xenografts for inhibition of DYRK1A autophosphorylation; format: in vivo; parameters: tumors were excised and proteins were extracted in tissue lysis buffer; from tissue; host or cells: RS4;11 human leukemia xenograft tumors grown in female SCID mice; conditions: mouse; dose 3 mg/kg, single oral administration, 2 h, RS4;11 tumors in SCID mice; read-out: phospho-Ser520-DYRK1A (% control at 2 h)
measurement_name: response vs control in vivo at 3 mg/kg (%)

Sample answers from the record:
- Cc1nc2ccc(-c3cc(N)nc(N)c3)nc2n1CCCC(F)(F)F: 33
- Cc1nc2ccc(-c3cc(N)nc(N)c3)nc2n1C1CC1: 44
- Cc1nc2ccc(-c3cc(N)nc(N)c3)nc2n1Cc1ccoc1: 35
- CCn1c(C)nc2ccc(-c3cc(N)nc(N)c3)nc21: 28

[I] Cc1nc2ccc(-c3cc(N)nc(N)c3)nc2n1C1CC(F)(F)C1
[II] Cc1nc2ccc(-c3cc(N)nc(N)c3)nc2n1C1CC(F)C1 (stereo not drawn)
Kindly identify which of I and II has the larger recorded response vs control in vivo at 3 mg/kg value. # respond with the chosen item's label
II
(II: 41%, I: 25%)

* * *

target: His-TEV-DYRK1A Kinase domain (aa127-485) (Homo sapiens); construct: His-TEV-DYRK1A Kinase domain (aa127-485); His tag (N); TEV protease cleavage site (N); test: Kinase ADP assay (ADP Hunter), DYRK1A kinase domain; format: biochemical; details: 20 μM ATP
measurement_name: IC50 (µM)

Sample answers from the record:
- Cc1nc2ccc(-c3cc(N)nc(N)c3)nc2n1CCc1cccc(OC(C)C)c1: 0.017
- Cc1nc2ccc(-c3cc(N)nc(N)c3)nc2n1CC1CCCOC1 (stereo not drawn): 0.04
- Cc1ccccc1CCn1c(C)nc2ccc(-c3cc(N)nc(N)c3)nc21: 0.008
- Cc1nc2ccc(-c3cc(N)nc(N)c3)nc2n1CCC1CCOCC1: 0.025
- Cc1nc2ccc(-c3cc(N)nc(N)c3)nc2n1CC1CCOC1 (stereo not drawn): 0.011
- Cc1nc2ccc(-c3cc(N)nc(N)c3)nc2n1CCOc1ccc(F)cc1: 0.025
- Cc1nc2ccc(-c3cc(N)nc(N)c3)nc2n1CC1CC1C (stereo not drawn): 0.019

[1] CCCCc1nc2ccc(-c3cc(N)nc(N)c3)nc2n1C
[2] Cc1nc2ccc(-c3cc(N)nc(N)c3)nc2n1CCCN1CCCC1=O
Would you kindly point out which of 1 and 2 has the smaller IC50 figure? # respond with the chosen item's label
1
(1: 0.021 µM, 2: 0.035 µM)
